Where these numbers come from: patent US11512053B2

targetUnderTest: full-length human PRMT1 isoform 1 (GST-tagged) (Homo sapiens, UniProt Q99873)
Sequence (Q99873 with tags, fused parts or gaps): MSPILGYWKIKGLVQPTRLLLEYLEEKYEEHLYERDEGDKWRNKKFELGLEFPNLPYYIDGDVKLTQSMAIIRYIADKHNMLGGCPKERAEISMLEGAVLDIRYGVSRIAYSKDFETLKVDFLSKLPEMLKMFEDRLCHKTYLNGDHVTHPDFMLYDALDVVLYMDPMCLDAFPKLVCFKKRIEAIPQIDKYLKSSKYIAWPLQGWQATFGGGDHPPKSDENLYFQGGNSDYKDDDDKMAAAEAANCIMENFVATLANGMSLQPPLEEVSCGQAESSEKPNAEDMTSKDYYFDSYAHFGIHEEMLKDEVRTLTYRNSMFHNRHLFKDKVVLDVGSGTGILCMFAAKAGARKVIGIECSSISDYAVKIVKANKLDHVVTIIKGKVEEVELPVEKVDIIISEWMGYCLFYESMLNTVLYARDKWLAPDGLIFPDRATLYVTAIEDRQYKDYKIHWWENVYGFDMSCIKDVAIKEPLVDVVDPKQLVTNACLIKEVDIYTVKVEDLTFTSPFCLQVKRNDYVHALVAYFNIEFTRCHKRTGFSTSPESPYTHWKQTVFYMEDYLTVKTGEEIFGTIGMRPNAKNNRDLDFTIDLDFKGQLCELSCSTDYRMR
method: PRMT1 Biochemical Assay (3H-SAM Flashplate, peptide substrate)
testConditions: single experiment or average of multiple experiments
readoutType: IC50 (nM)

Solved entries (count: 5):
CN(CCN)Cc1c[nH]nc1CCc1ccc(F)cc1; 10
CNCCN(C)Cc1c[nH]nc1[C@H]1CC[C@@H](N(CCCOC)C(=O)CCC(C)C)CC1; 39.8
CC[C@H]1CC[C@H](c2n[nH]cc2CN(C)CCNC)CC1; 4.8
CNCCN(C)Cc1c[nH]nc1[C@H]1CC[C@H](N(CC(C)C)C(=O)CCOC)CC1; 16.1
CCN(C(=O)CCC(C)C)[C@H]1CC[C@@H](c2n[nH]cc2CN(C)CCNC)CC1; 13.1

a: CCN(C(=O)CC(C)C)[C@H]1CC[C@H](c2n[nH]cc2CN(C)CCNC)CC1
b: CNCCN(C)Cc1c[nH]nc1C1CCC2(CC1)NC(=O)NC2=O (stereo not drawn)
Query: Given the two records a and b , choose the one whose IC50 value is lower. API: response body contains the label of the selected item.
Reply: a

P: CNCCN(C)Cc1c[nH]nc1C1CCC2(CC1)OC(C)CC(C)O2 (stereo not drawn)
Q: CNCCN(C)Cc1c[nH]nc1C1CCC(OCC(C)C)CC1 (stereo not drawn)
Query: Between the two listed entries P and Q , which has its IC50 at the higher number? # respond with the chosen item's label
Reply: Q
